System: human β-hexosaminidase [human placenta] (HexA/B)
Experiment: Determination of IC50 values for inhibition of human β-hexosaminidase
Type: biochemical
Conditions: ratio
Recorded Selectivity: IC50(human β-hexosaminidase)/IC50(Human OGA) by entry

# count of solved cases: 3
molecule="CNC(=O)C[C@@H]1[C@H](O)[C@H](O)[C@@H](CO)N1CCCCCNS(=O)(=O)c1ccc(-c2ccccc2)cc1 [Compound A066]" studytarget="human β-hexosaminidase [human placenta] (HexA/B)" experimentalresult=>3633
molecule="CNC(=O)C[C@@H]1[C@H](O)[C@H](O)[C@@H](CO)N1CCCCCCCCCO [Compound A009]" studytarget="human β-hexosaminidase [human placenta] (HexA/B)" experimentalresult=5472
molecule="CCCCCCN1[C@H](CC(=O)NCC2CCCCC2)[C@H](O)[C@H](O)[C@H]1CO [Compound A031]" studytarget="human β-hexosaminidase [human placenta] (HexA/B)" experimentalresult=>3.97

Ask: Which value of Selectivity: IC50(human β-hexosaminidase)/IC50(Human OGA) has been reported for O=C(C[C@H]1N[C@H](CO)[C@@H](O)[C@H]1O)NC1CC1 [Compound A048] in the records?
Result: >12.6

====

Molecular target: human β-hexosaminidase [human placenta] (HexA/B)
Construct: other: human β-hexosaminidase, human placenta; room temperature, thirty minutes
Assay: Determination of IC50 values for inhibition of human β-hexosaminidase
Settings: human β-hexosaminidase, human placenta; room temperature, thirty minutes
Recorded IC50 by entry

# count of solved cases: 5
compound="CNC(=O)[C@H]1N[C@H](CO)[C@@H](O)[C@@H]1O [Compound A059]" experimentalresult="0.0299 µM"
compound="CCCCN1[C@H](CC(=O)NC)[C@H](O)[C@H](O)[C@H]1CO [Compound A017]" experimentalresult="196 µM"
compound="CNC(=O)C[C@@H]1[C@H](O)[C@H](O)[C@@H](CO)N1CCCCC(C)C [Compound A021]" experimentalresult="> 300 µM"
compound="CCCCCCCCCN1[C@H](CC(=O)NCCC)[C@H](O)[C@H](O)[C@H]1CO [Compound A008]" experimentalresult="> 300 µM"
compound="CCCCCCN1[C@H](CC(=O)NCCC)[C@H](O)[C@H](O)[C@H]1CO [Compound A023]" experimentalresult="> 300 µM"

Ask: Which value of IC50 has been reported for CCCCCCN1[C@H](CC(=O)NC)[C@H](O)[C@@H](O)[C@@H]1CO [Compound A032] in the records?
Result: > 300 µM

Ask: Request: CNC(=O)C[C@H]1[C@@H](O)[C@H](O)[C@H](CO)N1CCCc1ccccc1 [Compound A057]
Result: 4.26 µM

Ask: Request: CCCCCCN1[C@H](CC(=O)NCC2CCCCC2)[C@H](O)[C@H](O)[C@H]1CO [Compound A031]
Result: > 300 µM

====

For human OGA (Homo sapiens, UniProt O60502), measured Ki is reported for the entries below.
Phrase the answer as number then unit, nothing more needed.

# count of solved cases: 2
structurestring=CNC(=O)C[C@@H]1[C@H](O)[C@H](O)[C@@H](CO)N1CCCCCNS(=O)(=O)c1ccc(-c2ccccc2)cc1 experimentalresult="3 nM"
structurestring=CCCCCCCCCN1[C@H](CC(=O)NCCC)[C@H](O)[C@H](O)[C@H]1CO experimentalresult="55 nM"

Ask: Which value of Ki has been reported for "CCNC(=O)C[C@@H]1[C@@H](O)[C@H](O)[C@@H](CO)N1CCCc1ccc(OC)cc1" in the records?
Result: 167 nM

Data provenance: patent US20140073801A1
